- EXPERIMENTAL SYSTEM: LRRK2 wild-type (Homo sapiens)
- Sequence (Q5S007 whole entry): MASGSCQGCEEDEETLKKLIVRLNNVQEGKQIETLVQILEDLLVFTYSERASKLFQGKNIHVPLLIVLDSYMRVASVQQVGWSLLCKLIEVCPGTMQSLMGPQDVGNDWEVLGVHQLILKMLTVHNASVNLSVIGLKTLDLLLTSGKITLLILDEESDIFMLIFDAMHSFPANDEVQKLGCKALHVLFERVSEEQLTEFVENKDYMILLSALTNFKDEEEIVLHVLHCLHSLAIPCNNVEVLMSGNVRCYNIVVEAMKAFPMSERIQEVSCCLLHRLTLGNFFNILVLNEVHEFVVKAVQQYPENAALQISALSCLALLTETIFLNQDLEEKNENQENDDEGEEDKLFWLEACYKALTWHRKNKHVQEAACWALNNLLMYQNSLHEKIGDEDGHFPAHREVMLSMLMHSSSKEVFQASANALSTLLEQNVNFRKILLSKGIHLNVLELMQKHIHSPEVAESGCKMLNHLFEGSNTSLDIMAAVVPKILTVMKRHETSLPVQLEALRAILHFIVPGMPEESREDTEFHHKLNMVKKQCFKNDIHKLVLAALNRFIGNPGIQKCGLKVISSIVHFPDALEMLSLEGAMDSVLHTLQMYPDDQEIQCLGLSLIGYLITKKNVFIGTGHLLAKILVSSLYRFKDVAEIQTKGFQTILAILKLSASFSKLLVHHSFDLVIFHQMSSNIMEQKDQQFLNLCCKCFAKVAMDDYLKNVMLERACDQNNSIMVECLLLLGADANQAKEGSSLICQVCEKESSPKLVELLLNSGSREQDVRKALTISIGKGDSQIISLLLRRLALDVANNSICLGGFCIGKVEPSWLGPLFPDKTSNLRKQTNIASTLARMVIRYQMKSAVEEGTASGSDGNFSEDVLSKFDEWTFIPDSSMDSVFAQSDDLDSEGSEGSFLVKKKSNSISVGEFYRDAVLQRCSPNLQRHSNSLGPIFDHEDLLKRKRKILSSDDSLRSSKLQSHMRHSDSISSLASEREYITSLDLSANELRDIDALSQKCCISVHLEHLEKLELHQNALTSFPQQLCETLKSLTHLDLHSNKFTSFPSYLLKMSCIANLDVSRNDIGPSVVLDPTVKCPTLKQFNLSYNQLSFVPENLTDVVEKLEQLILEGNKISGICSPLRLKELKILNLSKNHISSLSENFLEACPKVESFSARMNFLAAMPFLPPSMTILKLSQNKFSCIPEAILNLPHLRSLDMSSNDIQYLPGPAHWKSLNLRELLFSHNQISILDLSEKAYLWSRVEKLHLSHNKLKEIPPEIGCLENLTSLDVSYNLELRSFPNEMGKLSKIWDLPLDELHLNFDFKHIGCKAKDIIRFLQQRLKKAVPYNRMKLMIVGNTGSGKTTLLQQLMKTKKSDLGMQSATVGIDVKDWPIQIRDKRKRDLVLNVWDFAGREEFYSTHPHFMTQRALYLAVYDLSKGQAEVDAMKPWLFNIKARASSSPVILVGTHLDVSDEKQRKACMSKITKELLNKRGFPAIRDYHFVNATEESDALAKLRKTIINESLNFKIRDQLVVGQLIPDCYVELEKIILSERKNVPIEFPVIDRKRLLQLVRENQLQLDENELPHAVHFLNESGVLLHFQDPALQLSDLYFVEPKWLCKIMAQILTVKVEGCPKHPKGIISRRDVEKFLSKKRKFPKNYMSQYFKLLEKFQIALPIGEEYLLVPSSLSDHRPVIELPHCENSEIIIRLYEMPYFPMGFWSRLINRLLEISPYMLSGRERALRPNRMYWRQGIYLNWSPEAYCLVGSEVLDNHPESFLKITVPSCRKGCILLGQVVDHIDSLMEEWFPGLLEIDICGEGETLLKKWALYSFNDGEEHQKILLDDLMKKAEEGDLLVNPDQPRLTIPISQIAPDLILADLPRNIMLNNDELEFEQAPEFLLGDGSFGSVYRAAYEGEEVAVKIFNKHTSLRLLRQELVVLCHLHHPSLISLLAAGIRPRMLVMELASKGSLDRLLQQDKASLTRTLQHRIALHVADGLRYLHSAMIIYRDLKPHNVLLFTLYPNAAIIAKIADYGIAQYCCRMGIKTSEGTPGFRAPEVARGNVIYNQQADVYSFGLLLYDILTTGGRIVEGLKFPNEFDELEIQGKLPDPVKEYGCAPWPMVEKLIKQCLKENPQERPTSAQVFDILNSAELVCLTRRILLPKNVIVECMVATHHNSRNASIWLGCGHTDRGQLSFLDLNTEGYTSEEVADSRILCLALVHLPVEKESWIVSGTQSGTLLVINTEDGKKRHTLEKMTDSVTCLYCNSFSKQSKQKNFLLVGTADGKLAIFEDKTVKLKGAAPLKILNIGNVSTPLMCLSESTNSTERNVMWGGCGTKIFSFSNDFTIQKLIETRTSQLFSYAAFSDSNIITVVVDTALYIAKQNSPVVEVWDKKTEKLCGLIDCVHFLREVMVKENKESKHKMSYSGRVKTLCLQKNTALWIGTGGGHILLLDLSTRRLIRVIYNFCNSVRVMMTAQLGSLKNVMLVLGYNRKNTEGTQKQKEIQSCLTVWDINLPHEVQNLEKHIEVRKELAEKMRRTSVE
- EXPERIMENT DESCRIPTION: TR-FRET cellular assay for LRRK2 Ser935 phosphorylation, U-2 OS cells, BacMam LRRK2-GFP wild-type
- Assay type: cell-based
- Parameters: This high-throughput assay utilizes cells expressing full-length human LRRK2 with a C-terminal GFP tag (LRRK2-GFP); host or cells: U-2 OS cells transduced with BacMam
- ASSAY CONTEXT: WT, +/- SD, three independent experiments, * = partial inhibition, read-out: IC50, TR-FRET cell-based assay for Ser935 phosphorylation of LRRK2
PROPERTY LABEL: IC50 (µM)
Record the value in µM, omitting the unit from your answer.

Examples with their reported IC50 follow.
{"COMPOUND": "COc1cc(C(=O)N2CCC(N3CCN(C)CC3)CC2)ccc1Nc1ncc2c(n1)N(C)c1ccccc1C(=O)N2C [LRRK2-IN-1]", "UOM": "µM", "OBS VALUE": 0.09}
{"COMPOUND": "Cc1cncc2cccc(S(=O)(=O)N3CCCNC[C@@H]3C)c12 [H-1152]", "UOM": "µM", "OBS VALUE": 3.28}

Entry O=Nc1c(-c2c(O)[nH]c3ccccc23)[nH]c2ccccc12 [Indirubin-3-monoxime, Indirubin-3′-monoxime] — recorded IC50 = 3.78

---

- EXPERIMENTAL SYSTEM: LRRK2 G2019S (Homo sapiens, UniProt Q5S007, G2019S)
- Sequence (Q5S007 whole entry G2019S): as the sequence (Q5S007 whole entry) above, with G2019S counted along it
- EXPERIMENT DESCRIPTION: TR-FRET cellular assay for LRRK2 Ser935 phosphorylation, U-2 OS cells, BacMam LRRK2-GFP G2019S
- Format: cell-based
- Design: This high-throughput assay utilizes cells expressing full-length human LRRK2 with a C-terminal GFP tag (LRRK2-GFP); host or cells: U-2 OS, SH-SY5Y, HEK293T cells or human neural stem cells transduced with BacMam
- ASSAY CONTEXT: G2019S, +/- SD, three independent experiments, * = partial inhibition, read-out: IC50, TR-FRET cell-based assay for Ser935 phosphorylation of LRRK2
PROPERTY LABEL: pIC50
Please note pIC50 is a logarithmic value: minus log10 of concentration in mol/L. Answer with that number alone.

{"COMPOUND": "O=Nc1c(-c2c(O)[nH]c3ccccc23)[nH]c2ccccc12 [Indirubin-3-monoxime, Indirubin-3′-monoxime]", "pIC50": 5.71}
{"COMPOUND": "O=C1Nc2ccc(I)cc2/C1=C/c1cc(Br)c(O)c(Br)c1 [GW5074]", "pIC50": 6.33}
{"COMPOUND": "COc1cc(C(=O)N2CCC(N3CCN(C)CC3)CC2)ccc1Nc1ncc2c(n1)N(C)c1ccccc1C(=O)N2C [LRRK2-IN-1]", "pIC50": 7.30}

Now, please, on to the next compound.
// field: pIC50; key: Cc1cncc2cccc(S(=O)(=O)N3CCCNC[C@@H]3C)c12 [H-1152] ; value = 6.05

---

- EXPERIMENTAL SYSTEM: LRRK2 wild-type (Homo sapiens)
- EXPERIMENT DESCRIPTION: TR-FRET cellular assay for LRRK2 Ser935 phosphorylation, HEK293T cells, BacMam LRRK2-GFP wild-type
- Parameters: This high-throughput assay utilizes cells expressing full-length human LRRK2 with a C-terminal GFP tag (LRRK2-GFP); host or cells: HEK293T cells transduced with BacMam
- ASSAY CONTEXT: WT, +/- SD, three independent experiments, * = partial inhibition, read-out: IC50, TR-FRET cell-based assay for Ser935 phosphorylation of LRRK2
- Protocol: U-2 OS cells are maintained in growth medium (McCoy’s 5A supplemented with 10% dialyzed FBS (dFBS), 10 mM HEPES, 0.1 mM NEAA, 1 mM Sodium Pyruvate, and 100 U/mL Penicillin/100 µg/mL Streptomycin). […] Transduced cells in the 384-well assay plate were incubated with indicated inhibitors (5X, 5 µL/well) for 60 to 90 minutes. […] Z′-factor values were calculated as: Z′-factor = 1 - [(3 × stdevno virus +3 × stdevmaxvirus)/(avgmaxvirus – avgno-virus)]. […]
PROPERTY LABEL: pIC50
The read-out pIC50 is expressed as -log10 of concentration in moles per litre.

Answered cases to consult:
{"COMPOUND": "O=Nc1c(-c2c(O)[nH]c3ccccc23)[nH]c2ccccc12 [Indirubin-3-monoxime, Indirubin-3′-monoxime]", "OBS VALUE": 5.43}
{"COMPOUND": "Cc1cncc2cccc(S(=O)(=O)N3CCCNC[C@@H]3C)c12 [H-1152]", "OBS VALUE": 5.53}

// next entry
The value of pIC50 measured for the compound COc1cc(C(=O)N2CCC(N3CCN(C)CC3)CC2)ccc1Nc1ncc2c(n1)N(C)c1ccccc1C(=O)N2C [LRRK2-IN-1] turned out to be 6.92

Hey, just so you know, these numbers are from paper PMC3429506.
